biological target: ABCB1 (Homo sapiens, UniProt P08183); assay: JC-1 efflux inhibition dose-response, flow cytometry, Jurkat-DNR cells; settings: read-out: ABCB1 EC50; efflux assay, as worded
Sequence (P08183 whole entry): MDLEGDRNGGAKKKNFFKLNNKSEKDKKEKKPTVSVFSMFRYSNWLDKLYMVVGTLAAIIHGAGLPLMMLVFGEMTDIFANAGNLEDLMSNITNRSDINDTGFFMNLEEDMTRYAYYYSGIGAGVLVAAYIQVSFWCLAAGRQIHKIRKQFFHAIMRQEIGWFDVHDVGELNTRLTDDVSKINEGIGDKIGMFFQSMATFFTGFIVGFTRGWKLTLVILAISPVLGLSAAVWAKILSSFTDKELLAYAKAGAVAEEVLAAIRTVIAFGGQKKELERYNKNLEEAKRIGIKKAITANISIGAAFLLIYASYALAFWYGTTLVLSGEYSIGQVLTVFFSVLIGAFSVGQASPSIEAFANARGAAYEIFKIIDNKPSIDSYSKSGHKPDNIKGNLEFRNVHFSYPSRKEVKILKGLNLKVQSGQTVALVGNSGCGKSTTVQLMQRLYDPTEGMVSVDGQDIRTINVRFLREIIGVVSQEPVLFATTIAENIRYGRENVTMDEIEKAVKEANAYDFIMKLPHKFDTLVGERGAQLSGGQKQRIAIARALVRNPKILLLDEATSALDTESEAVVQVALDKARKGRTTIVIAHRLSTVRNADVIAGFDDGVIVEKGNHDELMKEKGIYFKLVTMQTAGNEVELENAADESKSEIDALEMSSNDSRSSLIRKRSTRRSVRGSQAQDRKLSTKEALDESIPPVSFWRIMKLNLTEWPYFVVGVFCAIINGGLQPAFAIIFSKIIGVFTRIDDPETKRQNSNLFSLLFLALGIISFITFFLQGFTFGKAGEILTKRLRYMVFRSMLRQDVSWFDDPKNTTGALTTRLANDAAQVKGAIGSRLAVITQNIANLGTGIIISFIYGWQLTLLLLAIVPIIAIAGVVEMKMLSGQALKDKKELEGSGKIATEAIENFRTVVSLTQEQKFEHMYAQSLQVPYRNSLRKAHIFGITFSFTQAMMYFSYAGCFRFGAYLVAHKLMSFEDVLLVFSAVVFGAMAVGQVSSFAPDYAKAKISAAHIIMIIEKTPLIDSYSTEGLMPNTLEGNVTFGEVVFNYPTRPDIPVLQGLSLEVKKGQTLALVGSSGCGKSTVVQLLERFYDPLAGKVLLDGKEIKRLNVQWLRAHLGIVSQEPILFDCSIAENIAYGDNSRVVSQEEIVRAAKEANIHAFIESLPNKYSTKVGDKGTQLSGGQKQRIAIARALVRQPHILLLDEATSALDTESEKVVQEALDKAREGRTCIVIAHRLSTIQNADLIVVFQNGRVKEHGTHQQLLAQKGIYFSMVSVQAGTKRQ
measurementName: pEC50
FYI, pEC50 means -log10 of a concentration in mol per litre.

Request: Tell us which pEC50 value is on record for O=C(c1ccoc1)N1CCN(c2cc(-c3ccco3)nc3cc(-c4ccccc4)nn23)CC1
Response: 5.33

---

tested on: Ig-MXP3 cells; test: Direct cytotoxicity; format: cell-based
Measured ABCG2 TD50, listed per entry for reference.
Give the number; µM is assumed, so skip it.

// known answers, use as guide
{"columns": ["smilesData", "measuredValue"],
 "data": [
  ["COc1ccccc1-c1cc2nc(-c3ccccc3)cc(N3CCN(C(=O)c4ccoc4)CC3)n2n1", 6.50],
  ["O=C(c1ccco1)N1CCN(c2cc(-c3ccccc3)nc3cc(-c4cccc(Cl)c4)nn23)CC1", 6.00],
  ["O=C(c1ccoc1)N1CCN(c2cc(-c3ccco3)nc3cc(-c4ccccc4)nn23)CC1", 18.30],
  ["COc1ccccc1-c1cc(N2CCN(C(=O)c3ccoc3)CC2)n2nc(-c3ccccc3)cc2n1", 7.62]
]}

Here is the next item to consider.
Request: Answer briefly: ABCG2 TD50 recorded on Ig-MXP3 cells for O=C(c1ccoc1)N1CCN(c2cc(-c3ccncc3)nc3cc(-c4cccc(Cl)c4)nn23)CC1
Response: 57.80
